B1: TPR 5TU (parent)
chain: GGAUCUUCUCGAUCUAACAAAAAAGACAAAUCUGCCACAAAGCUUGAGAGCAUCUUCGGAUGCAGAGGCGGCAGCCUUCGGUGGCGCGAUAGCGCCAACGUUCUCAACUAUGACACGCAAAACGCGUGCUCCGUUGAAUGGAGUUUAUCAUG

- Variants of: B1
- PROCEDURE_SUMMARY: polymerase ribozyme fitness, log enrichment relative to wild type (log ratio); higher = more active; in vitro selection for triplet polymerase activity
Variants at the floor of the assay were thinned out.
Parameter threshold = -3. Response is Y when polymerase ribozyme fitness (log ratio) meets or exceeds it, else N.

In [3]: df
Out[3]:
                           changes  label_class
 0            A12C U55G A97G C105U            N
 1                     U102C U148C            N
 2                 A97C A98U U111G            N
 3                  C57A A60G C79G            N
 4        C32A U44A A60C C79G G92U            N
 5                      A49G G140C            N
 6                  U15A C51U G86U            Y
 7                 U82C C85U C114A            N
 8  U13C U44A U55A G59U G84A A150C            N
 9                      A16U A120U            Y
10                  A17C G62U C93G            N
